Tested on: BJ
Experiment Description: Cytotoxicity against human BJ cells after 24 hrs by redox-sensitive dye based fluorescent assay
Type: cell-based
Measured pIC50 of individual entries
Please keep in mind that pIC50 is minus log10 of the molar concentration; only the number is needed.

1) O=C1CS/C(=N/N=C/c2c(-c3ccc(Cl)cc3)[nH]c3ccccc23)N1Cc1ccco1 :: 5.09
2) CCC1S/C(=N\N=C\c2c(-c3ccc(Cl)cc3)[nH]c3ccccc23)NC1=O (centres undefined) :: 5.13
3) C=CCN1C(=O)C(CC(=O)c2ccc(F)cc2)S/C1=N\N=C\c1ccccc1 (centres undefined) :: 4.67
4) O=C(CC1S\C(=N/N=C\C=C\c2ccccc2)N(Cc2ccco2)C1=O)Nc1cccc(C(F)(F)F)c1 (centres undefined) :: 4.81

Lab note: next compound to report on.
What the record says about CCOC(=O)c1sc(N/N=C/c2c(-c3ccc([N+](=O)[O-])cc3)[nH]c3ccccc23)nc1C : pIC50 is 4.30

----------
Test system: BJ
Experiment Description: Cytotoxicity against human BJ cells after 24 hrs by redox-sensitive dye based fluorescent assay
Type: cell-based
Measured IC50 of individual entries

Completed entries (count: 3):
1. C[C@@H]1CC[C@@H]2[C@@H](C1)c1sc(=O)n(CC(=O)Nc3ccccc3)c1SC2(C)C :: > 50 µM
2. C[C@@H]1CC[C@@H]2[C@@H](C1)c1sc(=O)n(CC(=O)Nc3ccc(S(N)(=O)=O)cc3)c1SC2(C)C :: > 50 µM
3. CC(=O)OCCC1S/C(=N\N=C\c2c(-c3ccccc3)[nH]c3ccccc23)NC1=O (centres undefined) :: 37.1 µM

Lab note: next compound to report on.
What the record says about CC1S/C(=N\N=C\c2c(-c3ccccc3)[nH]c3ccccc23)NC1=O (centres undefined) : IC50 is > 50 µM

----------
Measured IC50 of individual entries
Tested on: Trypanosoma brucei gambiense
Experiment Description: Antitrypanosomal activity against bloodstream form of Trypanosoma brucei gambiense Feo assessed as reduction in parasite growth
Type: functional, organism-based

Completed entries (count: 2):
1) C=CCN1C(=O)C(CC(=O)c2ccc(F)cc2)S/C1=N\N=C1\CC2CCC1(C)C2(C)C (stereo not drawn) :: > 50 µM
2) C=CCN1C(=O)C(CC(=O)c2ccc(F)cc2)S/C1=N\N=C\c1ccccc1 (stereo not drawn) :: > 50 µM

What the record says about O=C(CC1S\C(=N/N=C\C=C\c2ccccc2)N(Cc2ccco2)C1=O)Nc1cccc(C(F)(F)F)c1 (stereo not drawn) : IC50 is > 50 µM

----------
Measured selectivity ratio of individual entries
Experiment Description: Therapeutic index, ratio of average IC50 for human MRC5 and BJ cells to IC50 for antileishmanial activity against Leishmania major
Assay type: toxicity
Recorded Conditions: MRC5 and BJ cells (average IC50) versus Leishmania major, read-out: TI

Completed entries (count: 5):
1) C[C@@H]1CC[C@@H]2[C@@H](C1)c1sc(=O)n(CC(=O)Nc3ccccc3)c1SC2(C)C :: > 5.76
2) CCC1S/C(=N\N=C\c2c(-c3ccc([N+](=O)[O-])cc3)[nH]c3ccccc23)NC1=O (stereo not given) :: 1.87
3) O=C(CC1S/C(=N\N=C\c2c(-c3ccccc3)[nH]c3ccccc23)NC1=O)c1ccc(F)cc1 (stereo not given) :: > 6.18
4) C[C@@H]1CC[C@@H]2[C@@H](C1)c1sc(=O)n(CC(=O)Nc3cccc(C(F)(F)F)c3)c1SC2(C)C :: > 3.47
5) CC1S/C(=N\N=C\c2c(-c3ccc(Br)cc3)[nH]c3ccccc23)NC1=O (stereo not given) :: > 2.7

What the record says about CCC1S/C(=N\N=C\c2c(-c3ccc(Br)cc3)[nH]c3ccccc23)NC1=O (stereo not given) : selectivity ratio is 0.36

What the record says about CCOC(=O)c1sc(N/N=C/c2c(-c3ccc([N+](=O)[O-])cc3)[nH]c3ccccc23)nc1C : selectivity ratio is 5.09

What the record says about C[C@@H]1[C@H](O)[C@@H](C)/C=C/C=C/C=C/C=C/C=C/C=C/C=C/[C@H](O[C@@H]2O[C@H](C)[C@@H](O)[C@H](N)[C@@H]2O)C[C@@H]2O[C@](O)(C[C@@H](O)C[C@@H](O)[C@H](O)CC[C@@H](O)C[C@@H](O)CC(=O)O[C@H]1C)C[C@H](O)[C@H]2C(=O)O [AMPHOTERICIN B] : selectivity ratio is > 100

What the record says about C[C@@H]1CC[C@@H]2[C@@H](C1)c1sc(=O)n(CCC#N)c1SC2(C)C : selectivity ratio is > 3.38

What the record says about CCOC(=O)C(Cc1ccccc1)N1C(=O)/C(=C/Nc2ncc(Cc3ccc(Cl)cc3Cl)s2)SC1=S (stereo not given) : selectivity ratio is > 3.3

What the record says about CCOC(=O)c1sc(N/N=C/c2c(-c3ccc(Cl)cc3)[nH]c3ccccc23)nc1C : selectivity ratio is > 2.49

What the record says about CC1S/C(=N\N=C\c2c(-c3ccccc3)[nH]c3ccccc23)NC1=O (stereo not given) : selectivity ratio is > 48.1

What the record says about C=CCSc1nn2c(C=O)c(-c3ccccc3)nc2s1 : selectivity ratio is > 4.78

What the record says about O=C1CS/C(=N\N=C\c2c(-c3ccc(Cl)cc3)[nH]c3ccccc23)N1 : selectivity ratio is > 7.13

What the record says about CCC1S/C(=N\N=C\c2c(-c3ccccc3)[nH]c3ccccc23)NC1=O (stereo not given) : selectivity ratio is > 44.6

What the record says about C=CCN1C(=O)C(CC(=O)c2ccc(F)cc2)S/C1=N\N=C\c1ccccc1 (stereo not given) : selectivity ratio is 0.45
